experimental.system: Melatonin receptor type 1B (Homo sapiens) (UniProt P49286)
Threshold-based label: IAr under -0.1 gives label 1, IAr not under -0.1 gives label 0.

# molecule, experimental.system, classification
rows = [
    ("CCC(=O)NCCN1c2ccccc2CCc2ccccc21", "Melatonin receptor type 1B (Homo sapiens) (UniProt P49286)", "label 0"),
    ("CCC(=O)NCC1Cc2ccccc2Cc2ccc(OC)cc21 (stereo unspecified)", "Melatonin receptor type 1B (Homo sapiens) (UniProt P49286)", "label 1"),
    ("COc1ccc2c(c1)C(CNC(C)=O)Cc1ccccc1C2=O (stereo unspecified)", "Melatonin receptor type 1B (Homo sapiens) (UniProt P49286)", "label 0"),
    ("CC(=O)NCCC1Cc2ccccc2Cc2ccccc21 (stereo unspecified)", "Melatonin receptor type 1B (Homo sapiens) (UniProt P49286)", "label 0"),
    ("CCCC(=O)NCC1Cc2ccccc2Cc2ccc(OC)cc21 (stereo unspecified)", "Melatonin receptor type 1B (Homo sapiens) (UniProt P49286)", "label 1"),
    ("COc1ccc2c(c1)C(CNC(C)=O)Cc1ccccc1C2 (stereo unspecified)", "Melatonin receptor type 1B (Homo sapiens) (UniProt P49286)", "label 1"),
    ("CC(=O)NCC1Cc2ccccc2Cc2ccccc21 (stereo unspecified)", "Melatonin receptor type 1B (Homo sapiens) (UniProt P49286)", "label 1"),
    ("COc1ccc2c(c1)C(CCNC(C)=O)Cc1ccccc1C2 (stereo unspecified)", "Melatonin receptor type 1B (Homo sapiens) (UniProt P49286)", "label 0"),
    ("CC(=O)NCCN1c2ccccc2C=Cc2ccccc21", "Melatonin receptor type 1B (Homo sapiens) (UniProt P49286)", "label 0"),
    ("CC(=O)NCC1=Cc2ccccc2Cc2ccccc21", "Melatonin receptor type 1B (Homo sapiens) (UniProt P49286)", "label 0"),
]

====

experimental.system: Melatonin receptor type 1B (Homo sapiens, UniProt P49286)
Sequence (P49286 whole entry): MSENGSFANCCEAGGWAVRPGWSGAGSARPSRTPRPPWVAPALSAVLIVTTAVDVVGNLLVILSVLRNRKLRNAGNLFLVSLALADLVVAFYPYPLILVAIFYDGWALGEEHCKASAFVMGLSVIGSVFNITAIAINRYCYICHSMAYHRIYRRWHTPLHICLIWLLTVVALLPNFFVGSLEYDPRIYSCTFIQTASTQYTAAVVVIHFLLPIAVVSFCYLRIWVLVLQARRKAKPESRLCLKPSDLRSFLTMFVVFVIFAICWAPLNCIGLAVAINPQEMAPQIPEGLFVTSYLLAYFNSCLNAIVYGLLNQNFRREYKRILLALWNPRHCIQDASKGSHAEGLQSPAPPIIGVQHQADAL
assay.text: Binding affinity for human recombinant Melatonin receptor type 2 expressed in NIH3T3 cells
pKi: −log10 of the molar value.

# molecule, experimental.system, pKi
records = [
    ("COc1ccc2c(c1)C(CNC(C)=O)Cc1ccccc1C2=O (configuration not stated)", "Melatonin receptor type 1B (Homo sapiens, UniProt P49286)", 9.05),
    ("CCC(=O)NCCN1c2ccccc2CCc2ccccc21", "Melatonin receptor type 1B (Homo sapiens, UniProt P49286)", 6.70),
    ("CCC(=O)NCCN1c2ccccc2C=Cc2ccc(OC)cc21", "Melatonin receptor type 1B (Homo sapiens, UniProt P49286)", 7.42),
    ("CC(=O)NCC1=Cc2ccccc2Cc2ccccc21", "Melatonin receptor type 1B (Homo sapiens, UniProt P49286)", 7.07),
    ("CCCC(=O)NCC1Cc2ccccc2Cc2ccc(OC)cc21 (configuration not stated)", "Melatonin receptor type 1B (Homo sapiens, UniProt P49286)", 9.61),
    ("CC(=O)NCCN1c2ccccc2C=Cc2ccccc21", "Melatonin receptor type 1B (Homo sapiens, UniProt P49286)", 6.90),
    ("CCC(=O)NCC1Cc2ccccc2Cc2ccc(OC)cc21 (configuration not stated)", "Melatonin receptor type 1B (Homo sapiens, UniProt P49286)", 9.79),
    ("COc1ccc2c(c1)C(CNC(C)=O)Cc1ccccc1C2 (configuration not stated)", "Melatonin receptor type 1B (Homo sapiens, UniProt P49286)", 9.18),
    ("COc1ccc2c(c1)C(CCNC(C)=O)Cc1ccccc1C2 (configuration not stated)", "Melatonin receptor type 1B (Homo sapiens, UniProt P49286)", 7.40),
    ("CC(=O)NCC1Cc2ccccc2Cc2ccccc21 (configuration not stated)", "Melatonin receptor type 1B (Homo sapiens, UniProt P49286)", 7.52),
    ("CC(=O)NCCC1Cc2ccccc2Cc2ccccc21 (configuration not stated)", "Melatonin receptor type 1B (Homo sapiens, UniProt P49286)", 7.05),
    ("CC(=O)NCC(=O)N1c2ccccc2C=Cc2ccccc21", "Melatonin receptor type 1B (Homo sapiens, UniProt P49286)", 4.96),
]

====

experimental.system: UniProt P48039
Sequence (P48039 whole entry): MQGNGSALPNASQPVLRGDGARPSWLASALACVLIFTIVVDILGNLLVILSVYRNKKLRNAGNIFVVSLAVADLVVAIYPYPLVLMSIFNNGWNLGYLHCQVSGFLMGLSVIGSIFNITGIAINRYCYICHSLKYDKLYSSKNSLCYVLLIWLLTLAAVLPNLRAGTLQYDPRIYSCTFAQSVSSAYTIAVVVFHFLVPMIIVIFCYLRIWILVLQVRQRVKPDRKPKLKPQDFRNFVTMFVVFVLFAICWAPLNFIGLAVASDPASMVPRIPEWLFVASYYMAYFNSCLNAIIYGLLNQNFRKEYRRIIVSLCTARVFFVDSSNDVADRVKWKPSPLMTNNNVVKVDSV
assay.text: Binding affinity for human recombinant Melatonin receptor type 1 expressed in NIH3T3 cells
pKi: −log10 of the molar value.
Given measured pKi, output Condition met if it is greater than or equal to 7 and Condition not met if not.

# compound, classification
rows = [
    ("CCCC(=O)NCC1Cc2ccccc2Cc2ccc(OC)cc21 (configuration not stated)", "Condition met"),
    ("COc1ccc2c(c1)C(CNC(C)=O)Cc1ccccc1C2 (configuration not stated)", "Condition met"),
    ("CC(=O)NCC(=O)N1c2ccccc2C=Cc2ccccc21", "Condition not met"),
    ("COc1ccc2c(c1)C(CNC(C)=O)Cc1ccccc1C2=O (configuration not stated)", "Condition met"),
    ("CCC(=O)NCC1Cc2ccccc2Cc2ccc(OC)cc21 (configuration not stated)", "Condition met"),
    ("CC(=O)NCCC1Cc2ccccc2Cc2ccccc21 (configuration not stated)", "Condition not met"),
    ("CC(=O)NCC1=Cc2ccccc2Cc2ccccc21", "Condition not met"),
    ("CCC(=O)NCCN1c2ccccc2CCc2ccccc21", "Condition not met"),
    ("CCC(=O)NCCN1c2ccccc2C=Cc2ccc(OC)cc21", "Condition met"),
    ("CC(=O)NCC1Cc2ccccc2Cc2ccccc21 (configuration not stated)", "Condition not met"),
]
